PROTOCOL_SUMMARY: chemical genetic growth profiling, strain panel (AID 1159580);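 also: tested at 20 µM; growth read once vehicle control cultures reached saturation at 30 °C; 1 = growth at the plate median or of vehicle wells; lower values mean less growth of the strain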
ASSAY_CONTEXT: S. cerevisiae deletion strains, growth OD, locus YBR009C, strain hhf1, active compounds read low
Hit rate of the full screen: of about 5,500 compounds, about 2,000 (36%) were called active. Roughly 18% stayed inconclusive and do not appear here. This is one part of the list.
// values below are reported normalized growth
A bare number is all that is needed in reply.

Answered examples (5):
c1ccc2c(CC3=NCCN3)cccc2c1 : 0.987
COP(=S)(OC)Oc1ccc(Sc2ccc(OP(=S)(OC)OC)cc2)cc1 : 1.01
CC1(C)N([O-])[N+](=O)C1(C)Br (configuration not stated) : 0.995
COc1ccc2oc3ccccc3c(=O)c2c1 : 0.712
COc1ccc(-c2oc3cc(OC)c(OC)c(OC)c3c(=O)c2OC)cc1OC : 0.966

Record COc1ccc(-c2oc3cc(OC)c(OC)c(OC)c3c(=O)c2OC)cc1 . Reported normalized growth: 0.899

Record Cc1nnc(NS(=O)(=O)c2ccc(N)cc2)s1 . Reported normalized growth: 1.01

Record CC12CCCCC1(Br)[N+](=O)N2[O-] (configuration not stated) . Reported normalized growth: 0.939

Record CN(C)CCC(c1ccccc1)c1ccccn1 (configuration not stated) . Reported normalized growth: 1.01

Record CC(=O)N[C@@H](CCC(=O)O)C(=O)O . Reported normalized growth: 0.994

Record C=CCS(=O)C[C@H](N)C(=O)O (some centres not stated) . Reported normalized growth: 1

Record C[C@@H]1CC2C3CCC4=CC(=O)C=C[C@]4(C)[C@@]3(F)[C@@H](O)C[C@]2(C)[C@@]1(O)C(=O)CO (some centres not stated) . Reported normalized growth: 0.989
